Source listed as ChEMBL document CHEMBL3627677.

Biological target: Amine oxidase [flavin-containing] A (Homo sapiens, UniProt P21397)
Sequence (P21397 whole entry): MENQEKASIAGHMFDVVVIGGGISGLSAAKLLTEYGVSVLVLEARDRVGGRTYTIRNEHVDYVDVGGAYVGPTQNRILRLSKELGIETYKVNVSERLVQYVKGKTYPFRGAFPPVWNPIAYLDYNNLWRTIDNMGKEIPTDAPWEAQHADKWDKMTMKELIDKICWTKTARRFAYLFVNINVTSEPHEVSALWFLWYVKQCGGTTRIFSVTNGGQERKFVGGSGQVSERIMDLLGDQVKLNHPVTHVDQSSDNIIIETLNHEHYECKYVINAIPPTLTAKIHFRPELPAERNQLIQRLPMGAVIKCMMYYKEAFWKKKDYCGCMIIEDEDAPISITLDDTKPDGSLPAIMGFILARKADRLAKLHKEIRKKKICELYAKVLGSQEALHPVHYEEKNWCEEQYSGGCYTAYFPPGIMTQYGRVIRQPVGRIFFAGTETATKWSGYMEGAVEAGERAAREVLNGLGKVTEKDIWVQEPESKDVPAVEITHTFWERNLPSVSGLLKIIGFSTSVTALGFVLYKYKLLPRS
Test: Inhibition of recombinant human MAOA using p-tyramine as substrate assessed as H2O2 production preincubated for 15 mins followed by substrate addition by fluorometric analysis
pIC50: −log10 of the molar value.
experimental readout: pIC50

• COc1ccc(/C=C/c2cc(OC)cc(OC)c2/C=C/C(=O)c2cc3ccccc3oc2=O)cc1 = 4.38
• COc1ccc(/C=C/c2cc(OC)cc(OC)c2/C=C/C(=O)c2cc3cc(F)ccc3oc2=O)cc1 = 4.35
• CCOc1ccc2cc(C(=O)/C=C/c3c(/C=C/c4ccc(OC)cc4)cc(OC)cc3OC)c(=O)oc2c1 = 5.15
• CCOc1cccc2cc(C(=O)/C=C/c3c(/C=C/c4ccc(OC)cc4)cc(OC)cc3OC)c(=O)oc12 = 5.49
• COc1ccc(/C=C/c2cc(OC)cc(OC)c2/C=C/C(=O)c2cc3cc(Br)ccc3oc2=O)cc1 = 4.92
• COc1ccc(/C=C/c2cc(OC)cc(OC)c2/C=C/C(=O)c2cc3ccc(C)cc3oc2=O)cc1 = 4.24
• C=CCc1cc(OC)c2oc(=O)c(C(=O)/C=C/c3c(/C=C/c4ccc(OC)cc4)cc(OC)cc3OC)cc2c1 = 5.28
• COc1ccc(/C=C/c2cc(OC)cc(OC)c2/C=C/C(=O)c2cc3ccc(Br)cc3oc2=O)cc1 = 5.52
• COc1ccc(/C=C/c2cc(OC)cc(OC)c2/C=C/C(=O)c2cc3cc(C)ccc3oc2=O)cc1 = 4.52
• COc1ccc(/C=C/c2cc(OC)cc(OC)c2/C=C/C(=O)c2cc3c(OC)cc(OC)cc3oc2=O)cc1 = 4.67
